- Assay Target: Vitamin D3 receptor (Gallus gallus) (UniProt O42392)
- Test Protocol: Displacement of [3H]1,25-(OH)2-D3 from chick intestinal VDR relative to 1,25-(OH)2-D3
Mark Y for reported relative binding affinity (RBA) of 10 or greater; mark N for anything smaller.

# Cpd Smiles, Discrete Label
data = [
    ("C=C1/C(=C\\C=C2/CCC[C@]3(C)[C@@H]([C@H](C)C[C@@H]4C[C@@](C)(O)C(=O)N4CCc4cc(OC)cc(OC)c4)CC[C@@H]23)C[C@@H](O)C[C@@H]1O", "Y"),
    ("C=C1/C(=C\\C=C2/CCC[C@]3(C)[C@@H]([C@H](C)C[C@@H]4C[C@@](C)(O)C(=O)N4Cc4cc(OC)cc(OC)c4)CC[C@@H]23)C[C@@H](O)C[C@@H]1O", "Y"),
    ("C=C1/C(=C\\C=C2/CCC[C@]3(C)[C@@H]([C@H](C)C[C@H]4C[C@](C)(O)C(=O)N4Cc4cc(OCC)cc(OCC)c4)CC[C@@H]23)C[C@@H](O)C[C@@H]1O", "N"),
    ("C=C1/C(=C\\C=C2/CCC[C@]3(C)[C@@H]([C@H](C)C[C@H]4C[C@](C)(O)C(=O)N4Cc4cc(O)cc(O)c4)CC[C@@H]23)C[C@@H](O)C[C@@H]1O", "N"),
    ("C=C1/C(=C\\C=C2/CCC[C@]3(C)[C@@H]([C@H](C)C[C@H]4C[C@](C)(O)C(=O)N4Cc4ccccc4)CC[C@@H]23)C[C@@H](O)C[C@@H]1O", "Y"),
    ("C=C1/C(=C\\C=C2/CCC[C@]3(C)[C@@H]([C@H](C)C[C@H]4C[C@](C)(O)C(=O)N4CCc4ccccc4)CC[C@@H]23)C[C@@H](O)C[C@@H]1O", "Y"),
    ("C=C1/C(=C\\C=C2/CCC[C@]3(C)[C@@H]([C@H](C)C[C@@H]4C[C@](C)(O)C(=O)N4Cc4cc(OC)cc(OC)c4)CC[C@@H]23)C[C@@H](O)C[C@@H]1O", "Y"),
    ("C=C1/C(=C\\C=C2/CCC[C@]3(C)[C@@H]([C@H](C)C[C@H]4C[C@](C)(O)C(=O)N4Cc4cc(C(F)(F)F)cc(C(F)(F)F)c4)CC[C@@H]23)C[C@@H](O)C[C@@H]1O", "Y"),
    ("C=C1/C(=C\\C=C2/CCC[C@]3(C)[C@@H]([C@H](C)C[C@H]4C[C@@](C)(O)C(=O)N4CCc4cc(C(F)(F)F)cc(C(F)(F)F)c4)CC[C@@H]23)C[C@@H](O)C[C@@H]1O", "Y"),
]

====

- Assay Target: Vitamin D3 receptor (Gallus gallus) (UniProt O42392)
- Sequence (whole entry): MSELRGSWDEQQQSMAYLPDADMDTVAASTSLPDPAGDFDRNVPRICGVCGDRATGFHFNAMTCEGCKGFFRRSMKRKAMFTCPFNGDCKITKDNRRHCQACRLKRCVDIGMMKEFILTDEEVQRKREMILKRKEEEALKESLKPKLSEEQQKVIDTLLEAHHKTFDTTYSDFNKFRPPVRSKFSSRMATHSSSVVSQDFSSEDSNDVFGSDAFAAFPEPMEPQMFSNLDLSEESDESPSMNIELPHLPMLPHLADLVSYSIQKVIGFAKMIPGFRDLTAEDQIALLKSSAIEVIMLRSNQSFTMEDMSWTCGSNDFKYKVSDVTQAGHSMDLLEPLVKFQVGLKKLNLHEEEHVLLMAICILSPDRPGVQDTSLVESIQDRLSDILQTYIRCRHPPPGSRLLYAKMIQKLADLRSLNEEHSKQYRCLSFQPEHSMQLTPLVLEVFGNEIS
- Test Protocol: Displacement of [3H]1,25-(OH)2-D3 from chick intestinal VDR relative to 1,25-(OH)2-D3
Value Type: relative binding affinity (RBA)

# Cpd Smiles, Value Type, Readout Relation, Observed Result
data = [
    ("C=C1/C(=C\\C=C2/CCC[C@]3(C)[C@@H]([C@H](C)C[C@@H]4C[C@](C)(O)C(=O)N4CCc4cc(OC)cc(OC)c4)CC[C@@H]23)C[C@@H](O)C[C@@H]1O", "relative binding affinity (RBA)", "<", 1520),
    ("C=C1/C(=C\\C=C2/CCC[C@]3(C)[C@@H]([C@H](C)C[C@@H]4C[C@](C)(O)C(=O)N4Cc4cc(C(F)(F)F)cc(C(F)(F)F)c4)CC[C@@H]23)C[C@@H](O)C[C@@H]1O", "relative binding affinity (RBA)", "<", 1520),
    ("C=C1/C(=C\\C=C2/CCC[C@]3(C)[C@@H]([C@H](C)C[C@H]4C[C@@](C)(O)C(=O)N4CCCc4cc(OC)cc(OC)c4)CC[C@@H]23)C[C@@H](O)C[C@@H]1O", "relative binding affinity (RBA)", "<", 1520),
    ("C=C1/C(=C\\C=C2/CCC[C@]3(C)[C@@H]([C@H](C)C[C@@H]4C[C@](C)(O)C(=O)N4CCCc4cc(OC)cc(OC)c4)CC[C@@H]23)C[C@@H](O)C[C@@H]1O", "relative binding affinity (RBA)", "<", 1520),
    ("C=C1/C(=C\\C=C2/CCC[C@]3(C)[C@@H]([C@H](C)C[C@@H]4C[C@@](C)(O)C(=O)N4CCc4cc(C(F)(F)F)cc(C(F)(F)F)c4)CC[C@@H]23)C[C@@H](O)C[C@@H]1O", "relative binding affinity (RBA)", "=", 236),
    ("C=C1/C(=C\\C=C2/CCC[C@]3(C)[C@@H]([C@H](C)C[C@H]4C[C@](C)(O)C(=O)N4CCCc4cc(OC)cc(OC)c4)CC[C@@H]23)C[C@@H](O)C[C@@H]1O", "relative binding affinity (RBA)", "=", 57),
    ("C=C1/C(=C\\C=C2/CCC[C@]3(C)[C@@H]([C@H](C)C[C@H]4C[C@](C)(O)C(=O)N4CCc4cc(OC)cc(OC)c4)CC[C@@H]23)C[C@@H](O)C[C@@H]1O", "relative binding affinity (RBA)", "=", 12),
    ("C=C1/C(=C\\C=C2/CCC[C@]3(C)[C@@H]([C@H](C)C[C@H]4C[C@](C)(O)C(=O)N4Cc4cc(OCCC)cc(OCCC)c4)CC[C@@H]23)C[C@@H](O)C[C@@H]1O", "relative binding affinity (RBA)", "=", 11.9),
]

====

Quick reference: relative binding affinity (RBA) of the listed items.
- Assay Target: Vitamin D3 receptor (Gallus gallus) (UniProt O42392)
- Test Protocol: Displacement of [3H]1,25-(OH)2-D3 from chick intestinal VDR relative to 1,25-(OH)2-D3

# Cpd Smiles, Assay Target, Readout Relation, relative binding affinity (RBA)
records = [
    ("C=C1/C(=C\\C=C2/CCC[C@]3(C)[C@@H]([C@H](C)C[C@@H]4C[C@](C)(O)C(=O)N4CCc4cc(C(F)(F)F)cc(C(F)(F)F)c4)CC[C@@H]23)C[C@@H](O)C[C@@H]1O", "Vitamin D3 receptor (Gallus gallus) (UniProt O42392)", "=", 757),
    ("C=C1/C(=C\\C=C2/CCC[C@]3(C)[C@@H]([C@H](C)C[C@H]4C[C@](C)(O)C(=O)N4CCc4cc(C(F)(F)F)cc(C(F)(F)F)c4)CC[C@@H]23)C[C@@H](O)C[C@@H]1O", "Vitamin D3 receptor (Gallus gallus) (UniProt O42392)", "=", 42),
    ("C=C1/C(=C\\C=C2/CCC[C@]3(C)[C@@H]([C@H](C)C[C@@H]4C[C@@](C)(O)C(=O)N4Cc4cc(C(F)(F)F)cc(C(F)(F)F)c4)CC[C@@H]23)C[C@@H](O)C[C@@H]1O", "Vitamin D3 receptor (Gallus gallus) (UniProt O42392)", "<", 1520),
    ("C=C1/C(=C\\C=C2/CCC[C@]3(C)[C@@H]([C@H](C)C[C@H]4C[C@](C)(O)C(=O)N4Cc4cc(OCCCC)cc(OCCCC)c4)CC[C@@H]23)C[C@@H](O)C[C@@H]1O", "Vitamin D3 receptor (Gallus gallus) (UniProt O42392)", "=", 18.2),
    ("C=C1/C(=C\\C=C2/CCC[C@]3(C)[C@@H]([C@H](C)C[C@@H]4C[C@](C)(O)C(=O)N4CCCc4cc(C(F)(F)F)cc(C(F)(F)F)c4)CC[C@@H]23)C[C@@H](O)C[C@@H]1O", "Vitamin D3 receptor (Gallus gallus) (UniProt O42392)", "<", 5400),
    ("C=C1/C(=C\\C=C2/CCC[C@]3(C)[C@@H]([C@H](C)C[C@H]4C[C@](C)(O)C(=O)N4Cc4cc(OC)cc(OC)c4)CC[C@@H]23)C[C@@H](O)C[C@@H]1O", "Vitamin D3 receptor (Gallus gallus) (UniProt O42392)", "=", 1.9),
    ("C=C1/C(=C\\C=C2/CCC[C@]3(C)[C@@H]([C@H](C)C[C@@H]4C[C@@](C)(O)C(=O)N4CCCc4cc(C(F)(F)F)cc(C(F)(F)F)c4)CC[C@@H]23)C[C@@H](O)C[C@@H]1O", "Vitamin D3 receptor (Gallus gallus) (UniProt O42392)", "<", 5400),
    ("C=C1/C(=C\\C=C2/CCC[C@]3(C)[C@@H]([C@H](C)C[C@H]4C[C@@](C)(O)C(=O)N4CCCc4cc(C(F)(F)F)cc(C(F)(F)F)c4)CC[C@@H]23)C[C@@H](O)C[C@@H]1O", "Vitamin D3 receptor (Gallus gallus) (UniProt O42392)", "<", 5400),
    ("C=C1/C(=C\\C=C2/CCC[C@]3(C)[C@@H]([C@H](C)C[C@H]4C[C@@](C)(O)C(=O)N4Cc4cc(OC)cc(OC)c4)CC[C@@H]23)C[C@@H](O)C[C@@H]1O", "Vitamin D3 receptor (Gallus gallus) (UniProt O42392)", "=", 131),
    ("C=C1/C(=C\\C=C2/CCC[C@]3(C)[C@@H]([C@H](C)C[C@H]4C[C@@](C)(O)C(=O)N4CCc4cc(OC)cc(OC)c4)CC[C@@H]23)C[C@@H](O)C[C@@H]1O", "Vitamin D3 receptor (Gallus gallus) (UniProt O42392)", "<", 1520),
    ("C=C1/C(=C\\C=C2/CCC[C@]3(C)[C@@H]([C@H](C)C[C@H]4C[C@](C)(O)C(=O)N4CCCc4cc(C(F)(F)F)cc(C(F)(F)F)c4)CC[C@@H]23)C[C@@H](O)C[C@@H]1O", "Vitamin D3 receptor (Gallus gallus) (UniProt O42392)", "=", 181),
]
